species on record: Rattus norvegicus; assay: Open TG-GATES - Regimen: Daily Repeat; assay type: toxicity, organism-based, Sprague-Dawley; design: regimen Daily Repeat, gender Male, age 6 weeks; details: in vivo, po, 0 mg/kg, […], tissue Plasma, route gavage, dose level Control, time 7 day

- COMPOUND: "CCCCC1C(=O)N(c2ccccc2)N(c2ccccc2)C1=O"
  DISPLAY UNIT: "mg/dL"
  DBIL: 0.006
- COMPOUND: "CC(=O)[C@@]1(O)CC[C@H]2[C@@H]3C=C(Cl)C4=CC(=O)CC[C@]4(C)[C@H]3CC[C@@]21C"
  DISPLAY UNIT: "mg/dL"
  DBIL: 0
- COMPOUND: "CN(CCOc1ccc(CC2SC(=O)NC2=O)cc1)c1ccccn1.O=C(O)/C=C\\C(=O)O (stereo not given) [ROSIGLITAZONE MALEATE]"
  DISPLAY UNIT: "mg/dL"
  DBIL: 0.01
- COMPOUND: "O=C(O)c1ccccc1Nc1ccccc1"
  DISPLAY UNIT: "mg/dL"
  DBIL: 0.01
- COMPOUND: "O=c1ccc2ccccc2o1"
  DISPLAY UNIT: "mg/dL"
  DBIL: 0.014
- COMPOUND: "CCN(CC)C(=S)SSC(=S)N(CC)CC"
  DISPLAY UNIT: "mg/dL"
  DBIL: 0
- COMPOUND: "Nc1ccc(Cc2ccc(N)cc2)cc1"
  DISPLAY UNIT: "mg/dL"
  DBIL: 0.022
- COMPOUND: "CN(C/C=C/C#CC(C)(C)C)Cc1cccc2ccccc12"
  DISPLAY UNIT: "mg/dL"
  DBIL: 0.094
- COMPOUND: "CC(S)C(=O)NCC(=O)O (stereo not given)"
  DISPLAY UNIT: "mg/dL"
  DBIL: 0
- COMPOUND: "NS(=O)(=O)c1cc(C(=O)O)c(NCc2ccco2)cc1Cl [FUROSEMIDE]"
  DISPLAY UNIT: "mg/dL"
  DBIL: 0.018
